# test-target: Jak2 (UniProt O60674)
# Sequence (O60674 whole entry, looked up): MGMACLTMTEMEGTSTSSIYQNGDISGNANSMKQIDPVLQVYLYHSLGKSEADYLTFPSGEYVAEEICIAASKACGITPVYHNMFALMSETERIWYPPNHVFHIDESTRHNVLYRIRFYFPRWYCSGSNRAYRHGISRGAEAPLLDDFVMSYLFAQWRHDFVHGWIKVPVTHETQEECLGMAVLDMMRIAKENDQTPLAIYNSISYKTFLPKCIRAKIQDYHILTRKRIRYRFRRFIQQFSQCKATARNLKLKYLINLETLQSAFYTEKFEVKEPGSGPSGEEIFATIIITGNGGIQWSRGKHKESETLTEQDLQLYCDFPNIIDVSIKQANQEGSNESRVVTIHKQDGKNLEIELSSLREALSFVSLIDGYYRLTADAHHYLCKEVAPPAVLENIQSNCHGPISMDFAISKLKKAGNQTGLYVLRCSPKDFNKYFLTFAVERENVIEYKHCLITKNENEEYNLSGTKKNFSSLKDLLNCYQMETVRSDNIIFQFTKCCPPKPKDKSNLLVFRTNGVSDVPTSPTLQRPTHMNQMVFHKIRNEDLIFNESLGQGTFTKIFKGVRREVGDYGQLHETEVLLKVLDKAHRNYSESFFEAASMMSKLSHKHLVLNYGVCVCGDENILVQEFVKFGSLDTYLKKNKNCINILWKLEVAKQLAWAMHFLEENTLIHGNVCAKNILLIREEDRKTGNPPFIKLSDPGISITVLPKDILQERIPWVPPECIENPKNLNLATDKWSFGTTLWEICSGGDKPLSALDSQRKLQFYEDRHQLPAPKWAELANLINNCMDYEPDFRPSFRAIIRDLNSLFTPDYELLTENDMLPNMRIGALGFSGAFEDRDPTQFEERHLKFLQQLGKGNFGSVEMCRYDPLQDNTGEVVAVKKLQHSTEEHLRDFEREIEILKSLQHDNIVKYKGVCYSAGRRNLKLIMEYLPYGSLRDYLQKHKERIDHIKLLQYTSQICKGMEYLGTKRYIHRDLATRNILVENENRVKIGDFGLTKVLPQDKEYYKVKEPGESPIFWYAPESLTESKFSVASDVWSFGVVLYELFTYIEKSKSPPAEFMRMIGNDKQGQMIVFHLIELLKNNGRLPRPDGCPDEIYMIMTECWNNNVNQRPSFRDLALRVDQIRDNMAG
# assay-procedure: phosphorylation enrichment, bacterial display (enrichment ratio); higher = better substrate or ligand; peptides without Tyr show the background;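 further: 11-residue human phosphosite peptides and single-mutation variants displayed on the E. coli surface, counted by deep sequencing, each peptide's frequency after selection divided by its frequency in the unselected input library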;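 further: frequency after pTyr selection over input frequency; kinase dosed for 20-30% of maximal phosphorylation in three min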
experimental-endpoint: phosphorylation enrichment

[[record]]
sequence_content = "LENQTYFKSFE [AKAP9_Y2482]"
experimental_endpoint = "phosphorylation enrichment"
experimental_value = 1.13

[[record]]
sequence_content = "CTTIHYNFICN [TP53_Y234_M237I_YF]"
experimental_endpoint = "phosphorylation enrichment"
experimental_value = 1.25

[[record]]
sequence_content = "SLHPGYNFRFA [P2RX7_Y291_Y288H_YF]"
experimental_endpoint = "phosphorylation enrichment"
experimental_value = 0.765

[[record]]
sequence_content = "VYYYSYLLKNH [PTEN_Y180]"
experimental_endpoint = "phosphorylation enrichment"
experimental_value = 2.14

[[record]]
sequence_content = "IQKKFYRAILE [CHD7_Y1218_YF]"
experimental_endpoint = "phosphorylation enrichment"
experimental_value = 0.636

[[record]]
sequence_content = "GGRIDYIAGLD [APRT_Y60]"
experimental_endpoint = "phosphorylation enrichment"
experimental_value = 0.708

[[record]]
sequence_content = "LTERGYSFTTT [ACTB_Y198]"
experimental_endpoint = "phosphorylation enrichment"
experimental_value = 0.756

[[record]]
sequence_content = "KIDAKYKKKIE [WDR19_Y1230]"
experimental_endpoint = "phosphorylation enrichment"
experimental_value = 0.594

[[record]]
sequence_content = "TNIKRYHIAKV [HARS1_Y150]"
experimental_endpoint = "phosphorylation enrichment"
experimental_value = 0.43

[[record]]
sequence_content = "DDLEVYLKHLL [SACS_Y3477]"
experimental_endpoint = "phosphorylation enrichment"
experimental_value = 0.822

[[record]]
sequence_content = "YMRGMYFRMTD [PLA2G6_Y541_K545T]"
experimental_endpoint = "phosphorylation enrichment"
experimental_value = 1.41

[[record]]
sequence_content = "YYSSEYHCVGG [CTSC_Y345_Y347C]"
experimental_endpoint = "phosphorylation enrichment"
experimental_value = 3.05

[[record]]
sequence_content = "ITNHIYTWVDP [DFNB31_Y234_V229I]"
experimental_endpoint = "phosphorylation enrichment"
experimental_value = 1.06

[[record]]
sequence_content = "LYSINYLHFGE [KDM4C_Y201]"
experimental_endpoint = "phosphorylation enrichment"
experimental_value = 1.1

[[record]]
sequence_content = "AAVNGYVFGGG [ECHS1_Y137_A138V]"
experimental_endpoint = "phosphorylation enrichment"
experimental_value = 0.591

[[record]]
sequence_content = "REGAKYVSHGT [ASS1_Y113_A118T]"
experimental_endpoint = "phosphorylation enrichment"
experimental_value = 0.898

[[record]]
sequence_content = "FLENFYDLEKD [MMP3_Y42_K45E_YF]"
experimental_endpoint = "phosphorylation enrichment"
experimental_value = 1.21

[[record]]
sequence_content = "VATRWYQSPEL [CDKL5_Y177_R178Q]"
experimental_endpoint = "phosphorylation enrichment"
experimental_value = 0.566

[[record]]
sequence_content = "EVVGRYSVHYA [MLH1_Y183_N187Y]"
experimental_endpoint = "phosphorylation enrichment"
experimental_value = 0.823

[[record]]
sequence_content = "HNMPIYEGYAL [ACTA1_Y168_V165M]"
experimental_endpoint = "phosphorylation enrichment"
experimental_value = 0.831

[[record]]
sequence_content = "TFGVVYKARNK [CDK2_Y19_YF]"
experimental_endpoint = "phosphorylation enrichment"
experimental_value = 0.805

[[record]]
sequence_content = "HFGCVYHGTLL [MET_Y1093]"
experimental_endpoint = "phosphorylation enrichment"
experimental_value = 1.28

[[record]]
sequence_content = "RMQLPYDSTWE [PDGFRB_Y589_P584R]"
experimental_endpoint = "phosphorylation enrichment"
experimental_value = 1.17

[[record]]
sequence_content = "KHTLSFVDVGT [SDHA_Y629_Y629F]"
experimental_endpoint = "phosphorylation enrichment"
experimental_value = 0.624

[[record]]
sequence_content = "FFHCTYKKRMI [CLEC12A_Y242_YF]"
experimental_endpoint = "phosphorylation enrichment"
experimental_value = 0.816

[[record]]
sequence_content = "SVDRDYVLKSA [HTATIP2_Y111_R106S]"
experimental_endpoint = "phosphorylation enrichment"
experimental_value = 0.571

[[record]]
sequence_content = "DCAAIYGNEPD [AKR1A1_Y50_E55D]"
experimental_endpoint = "phosphorylation enrichment"
experimental_value = 1.25

[[record]]
sequence_content = "RFLERYIFNPE [HLA-DPB1_Y57_R61P_YF]"
experimental_endpoint = "phosphorylation enrichment"
experimental_value = 1.39

[[record]]
sequence_content = "SDFFAYSPVQE [H6PD_Y449_R453Q_YF]"
experimental_endpoint = "phosphorylation enrichment"
experimental_value = 1.36

[[record]]
sequence_content = "DYSLKYPTDIP [APC_Y1183_A1184P]"
experimental_endpoint = "phosphorylation enrichment"
experimental_value = 0.852

[[record]]
sequence_content = "HEDPMYDIIRD [RP9_Y142]"
experimental_endpoint = "phosphorylation enrichment"
experimental_value = 1.29

[[record]]
sequence_content = "LNGDRYFKGIV [DCX_Y64_R59L]"
experimental_endpoint = "phosphorylation enrichment"
experimental_value = 0.942

[[record]]
sequence_content = "YAKSVYWDNTL [NUP107_Y296_E298D]"
experimental_endpoint = "phosphorylation enrichment"
experimental_value = 0.69

[[record]]
sequence_content = "IIAVHYVLEES [RYR2_Y4559]"
experimental_endpoint = "phosphorylation enrichment"
experimental_value = 0.963

[[record]]
sequence_content = "SLNEEYTKNKT [MSH2_Y563]"
experimental_endpoint = "phosphorylation enrichment"
experimental_value = 0.593

[[record]]
sequence_content = "VNFGAYINFFK [GLB1_Y488_D491Y_YF]"
experimental_endpoint = "phosphorylation enrichment"
experimental_value = 1.87

[[record]]
sequence_content = "DSGKLYALDVL [INO80_Y1104]"
experimental_endpoint = "phosphorylation enrichment"
experimental_value = 0.731

[[record]]
sequence_content = "CTAIHYNFMCN [TP53_Y234_T231A_YF]"
experimental_endpoint = "phosphorylation enrichment"
experimental_value = 0.863

[[record]]
sequence_content = "NNPAYYVLEGV [INPPL1_Y987]"
experimental_endpoint = "phosphorylation enrichment"
experimental_value = 4.89

[[record]]
sequence_content = "QRASDYYSQQM [GBP6_Y333_A331S]"
experimental_endpoint = "phosphorylation enrichment"
experimental_value = 0.805

[[record]]
sequence_content = "PRDGEYFTLQI [TP53_Y327_L323R]"
experimental_endpoint = "phosphorylation enrichment"
experimental_value = 3.26

[[record]]
sequence_content = "GLAELYEFKKK [CKAP5_Y1854_YF]"
experimental_endpoint = "phosphorylation enrichment"
experimental_value = 0.619

[[record]]
sequence_content = "EGQKIYIDDNN [PIP4K2A_Y246]"
experimental_endpoint = "phosphorylation enrichment"
experimental_value = 0.984

[[record]]
sequence_content = "CSRRLYQLTKL [AR_Y858_F857L]"
experimental_endpoint = "phosphorylation enrichment"
experimental_value = 0.794

[[record]]
sequence_content = "AHLTEYLSTHY [UQCRC1_Y219_D215H]"
experimental_endpoint = "phosphorylation enrichment"
experimental_value = 0.647

[[record]]
sequence_content = "LSAPCYLNRIS [HEXA_Y421_W420C]"
experimental_endpoint = "phosphorylation enrichment"
experimental_value = 0.634

[[record]]
sequence_content = "ERMKVYVPIGF [EPHX1_Y393_T396I]"
experimental_endpoint = "phosphorylation enrichment"
experimental_value = 0.597

[[record]]
sequence_content = "VDLIVYLRTNP [TK2_Y181]"
experimental_endpoint = "phosphorylation enrichment"
experimental_value = 1.06

[[record]]
sequence_content = "NTGGYYDLYGG [PTPN11_Y63_D61G]"
experimental_endpoint = "phosphorylation enrichment"
experimental_value = 5.82

[[record]]
sequence_content = "NTADYYDLYGG [PTPN11_Y63_G60A]"
experimental_endpoint = "phosphorylation enrichment"
experimental_value = 3.39

[[record]]
sequence_content = "TENAGYFFRIS"
experimental_endpoint = "phosphorylation enrichment"
experimental_value = 1.46

[[record]]
sequence_content = "YQGGTYSKAST [FGG_Y380]"
experimental_endpoint = "phosphorylation enrichment"
experimental_value = 0.373

[[record]]
sequence_content = "GIKAAYEAELG [LMNA_Y81]"
experimental_endpoint = "phosphorylation enrichment"
experimental_value = 0.691

[[record]]
sequence_content = "ESMLRYDVYGG [STOX1_Y607_E608D]"
experimental_endpoint = "phosphorylation enrichment"
experimental_value = 0.704

[[record]]
sequence_content = "MKNDLYQTPLH [NFKB1_Y582_R578K]"
experimental_endpoint = "phosphorylation enrichment"
experimental_value = 0.727

[[record]]
sequence_content = "PPKFFYTRKLL [CYBB_Y41]"
experimental_endpoint = "phosphorylation enrichment"
experimental_value = 0.658

[[record]]
sequence_content = "SVVVPFEPPEV [TP53_Y220_Y220F]"
experimental_endpoint = "phosphorylation enrichment"
experimental_value = 1.06

[[record]]
sequence_content = "FVSLIYTNFEA [GSTP1_Y109_I105V_YF]"
experimental_endpoint = "phosphorylation enrichment"
experimental_value = 1.18

